Consider the following binders; for each one, report its kon.
Target: T1, 4Ig human B7-H3 (human, UniProt Q5ZPR3 29-466, limits assumed)
T1 construct: Soluble analyte in SPR; also called 4Ig-B7H3; 4Ig B7H3
T1 sequence: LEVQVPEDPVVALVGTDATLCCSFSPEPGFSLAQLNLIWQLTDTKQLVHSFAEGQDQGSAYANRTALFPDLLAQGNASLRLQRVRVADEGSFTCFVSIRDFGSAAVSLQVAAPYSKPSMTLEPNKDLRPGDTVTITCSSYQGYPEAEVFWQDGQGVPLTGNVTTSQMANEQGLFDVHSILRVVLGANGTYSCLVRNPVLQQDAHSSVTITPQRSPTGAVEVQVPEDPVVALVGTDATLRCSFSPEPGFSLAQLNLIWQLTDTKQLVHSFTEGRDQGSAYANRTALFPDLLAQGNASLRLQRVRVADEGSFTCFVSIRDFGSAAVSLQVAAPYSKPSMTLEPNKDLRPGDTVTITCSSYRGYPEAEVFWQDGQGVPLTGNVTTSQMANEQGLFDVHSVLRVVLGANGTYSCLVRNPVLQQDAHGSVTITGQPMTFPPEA
Test: SPR, Carterra LSA; antibody captured on anti-human Fc lawn, 4Ig human B7-H3 as analyte
Give bare numbers, in M⁻¹ s⁻¹.

Some binders with known kon results, for comparison:
>>> observed("L3H5 (antibody, human IgG1, kappa, V domains shown, Humanized IgG1, HEK293; chains tied by the L/H names; also called YB8 L3 + YB8 H5) VH: QVQLVQSGAEVKKPGASVKVSCKASGYTFTNYDINWVRQATGQGLEWMGWIFPGDGSTQYNEKFQGRVTMTTNTSISTAYMELSSLRSEDTAVYYCARQTTATWFAYWGQGTLVTVSS VL: EIVMTQSPDFQSVTPKEKVTLTCRASQSISDYLHWYQQKPDQSPKLLIKYASQSISGVPSRFSGSGSGSDFTLTINSLEAEDAGVYYCQNGHSFPLTFGQGTKLEIKR")
38000
>>> observed("L4H6 (antibody, human IgG1, kappa, V domains shown, Humanized IgG1, HEK293; chains tied by the L/H names; also called YB8 L4 + YB8 H6) VH: QVQLQQSGAEVKKPGASVKLSCKASGYTFTNYDINWVRQATGQGLEWIGWIFPGDGSTQYAQKFQGRATLTTNTSISTAYMELSSLRSEDTAVYFCARQTTATWFAYWGQGTLVTVSS VL: EIVMTQSPDFQSVTPKEKVTLTCRASQSISDYLHWYQQKPDQSPKLLIKYASQSISGIPSRFSGSGSGTDFTLTINSVEAEDAGVYYCQNGHSFPLTFGQGTKLEIKR")
43000

Please examine the following record next.
May I ask what kon has been recorded for L4H5 (antibody, human IgG1, kappa, V domains shown, Humanized IgG1, HEK293; chains tied by the L/H names; also called YB8 L4 + YB8 H5) VH: QVQLVQSGAEVKKPGASVKVSCKASGYTFTNYDINWVRQATGQGLEWMGWIFPGDGSTQYNEKFQGRVTMTTNTSISTAYMELSSLRSEDTAVYYCARQTTATWFAYWGQGTLVTVSS VL: EIVMTQSPDFQSVTPKEKVTLTCRASQSISDYLHWYQQKPDQSPKLLIKYASQSISGIPSRFSGSGSGTDFTLTINSVEAEDAGVYYCQNGHSFPLTFGQGTKLEIKR ?
43000

Cited source for all entries: patent US20230312721A1
